Target: T1, human 5T4 oncofoetal antigen (human, UniProt Q13641 32-420)
T1 construct: whole, on cells; also called hu 5T4; human 5T4 antigen
T1 sequence (looked up): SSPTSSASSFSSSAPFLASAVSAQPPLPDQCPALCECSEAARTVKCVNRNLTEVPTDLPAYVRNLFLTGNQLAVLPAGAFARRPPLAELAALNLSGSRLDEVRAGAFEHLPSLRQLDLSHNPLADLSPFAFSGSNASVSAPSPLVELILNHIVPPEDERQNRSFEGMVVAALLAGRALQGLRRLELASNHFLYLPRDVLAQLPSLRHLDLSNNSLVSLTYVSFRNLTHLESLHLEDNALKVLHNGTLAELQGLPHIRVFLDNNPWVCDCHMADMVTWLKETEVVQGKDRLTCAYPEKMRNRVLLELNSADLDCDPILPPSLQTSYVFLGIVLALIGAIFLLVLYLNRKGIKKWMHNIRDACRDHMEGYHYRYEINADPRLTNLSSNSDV
Experiment: flow cytometry, CHOZN cells expressing hu 5T4

>  <binder>
humanized anti-5T4 antibody 789a with HC-41C mutation (antibody, V domains shown) VH: EVKVEESGGGLVQPGGSLRLSCAASGFSLSSYWMSWVRQACGKGLEWVSIIAGRGSTYYASWAKGRFTISKDNSEGMVYLQMNSLRAEDTAVYYCARVSSIYYTFNLWGQGTTVTVSS VL: EIVLTQSPSSLSASVGDRVTITCQSSQSVYSNNELSWYQQKPGKAPKLLIYYASTLASGVPSRFSGSGSGTDFTLTISSLQPEDFATYYCQGSYYSGSGWYYAFGQGTKLEIKR

>  <valueUnit>
µg/mL

>  <EC50>
0.2

$$$$
>  <binder>
humanized anti-5T4 antibody 789c with HC-41C mutation (antibody, V domains shown) VH: QSVEESGGGLVQPGGSLRLSCAASGFSLSSYWMSWVRQACGKGLEWIGIIAGRGSTYYASWAKGRFTISRDNSKNTLYLQMNSLRAEDTAVYYCARVSSIYYTFNLWGQGTLVTVSS VL: DIVMTQSPDSLAVSLGERATINCQSSQSVYSNNELSWYQQKPGQPPKLLIYYASTLASGVPDRFSGSGSGTDFTLTISSLQAEDVAVYYCQGSYYSGSGWYYAFGGGTKLEIKR

>  <valueUnit>
µg/mL

>  <EC50>
0.2

$$$$
